Where do the numbers come from? From PubChem BioAssay (NCI).

Would you mind telling me the reported growth of each entry?
test system: SF-295 CNS; test: NCI-60 one-dose screen, 48 h (100 = growth as untreated, 0 = no growth, -100 = all killed); settings: 10 µM unless noted
About 83,000 compounds went through this panel and 20% of them were active in at least one assay; those are over-represented in the sample as a whole.
Please state the figure in %; there is no need to write the unit.

Enter growth (test system SF-295 CNS) for `C=C1C(=O)O[C@H]2[C@H]1CC/C(COC(=O)NCCCCNC(=O)OC/C1=C/CC[C@@]3(C)O[C@H]3[C@H]3OC(=O)C(=C)[C@@H]3CC1)=C\CC[C@@]1(C)O[C@@H]21`
99

Write down measured growth (SF-295 CNS) for this compound. `N#Cc1ccccc1OCC(=O)Nc1nc2c(s1)COc1ccccc1-2`
79.5

Enter measured growth, system SF-295 CNS, for the compound shown: `NS(=O)(=O)c1ccc(C(=O)N=Nc2c(O)[nH]c3c(F)cccc23)cc1`
103

Print SF-295 CNS growth for `C#Cc1cc(C(=O)Nc2ccc(CN3CCN(C)CC3)c(C(F)(F)F)c2)ccc1C` .
77

// fetch growth; item: CCCCC1COc2cccc3c2N1C=C/C3=C\C(=O)N(C)c1cccc(Cl)c1 (stereo unspecified) ; system: SF-295 CNS
97.6

Give SF-295 CNS growth for the following compound: `Cc1ccc2[nH]c(=S)[nH]c(=O)c2c1`
104

Provide growth, recorded with SF-295 CNS, of `CCOC(=O)c1cc2c(n1Cc1cc(OC)cc(OC)c1Br)-c1nc(NC(C)=O)sc1CCC2`
76.4

System SF-295 CNS. Read-out growth. Item `N#Cc1ccccc1-c1ccc(Cn2c(-c3cscn3)nc3c(Cl)cccc32)cc1` . Report value.
67.9

Answer briefly: growth recorded on SF-295 CNS for CN1C(=O)N(C)C2(c3ccccc3)N(CC(=O)Nc3ccccc3O)C(=O)NC12c1ccccc1 (stereo unspecified)
101

Lab note: SF-295 CNS assay, enter growth for `CN1CCN(Cc2ccc(NC(=O)c3nc4ccc5[nH]ncc5c4c4c3CCCC4)cc2C(F)(F)F)CC1` here
-67.7

Answer briefly: growth recorded on SF-295 CNS for `O=C1/C(=C/c2ccccc2)CN(C(=O)C(Cl)Cl)C/C1=C\c1ccccc1`
-1.45

Supply growth measured with SF-295 CNS for `COc1ccc(/C=N\Nc2nc(SCC(C)C)nc(-c3ccc(OC)cc3)c2C#N)cc1` .
-5.63

State recorded growth with SF-295 CNS, entry `Brc1ccc(/C=C(/C2=NCCN2)n2ccc3ccccc32)cc1` , no comment.
85.1

Report growth under test system SF-295 CNS for Cn1ccnc1CN1CCSC(C(=O)Nc2ccccc2)C1 (stereo unspecified) .
92.9

Please indicate recorded growth of `Cc1ccc(-c2nc3nc(-c4ccc(Cl)cc4)nc(N4CCCNCC4)c3o2)cc1` measured with SF-295 CNS.
85.3

# return growth of `COc1ccc(-c2cc3cnc4ccccc4c3oc2=O)cc1` (system: SF-295 CNS)
96.7

Give growth for COc1ccc2c(c1)CC[C@@H]1[C@@H]2CC[C@]2(C)C3C(=CCC4C(=O)N(c5ccccc5)C(=O)C43)C[C@@H]12 (stereo partly specified) tested on SF-295 CNS.
96.4

// output growth; input `O=C(Nc1ccccc1C(=O)N/N=C(\c1ccccc1)c1ccccn1)c1ccccc1` ; system SF-295 CNS
17.9

# assay system SF-295 CNS: give growth of `COc1ccc(/C=C/C(=O)c2cc3c(N)c(C(=O)Nc4ccccc4Cl)sc3nc2C)cc1`
48.5

Recall the reported growth of `c1ccc(Cc2cccc[n+]2C(c2ccccc2)c2ccccc2)cc1` when tested on SF-295 CNS.
73.6

Fill in: growth on SF-295 CNS, entry `CCCCCCCC/C=C\CCCCCCCCOc1ccccc1CC(=O)NCC[N+]1(C)CCOCC1`
67.6
